These entries and their values trace back to patent US20250231157A1.

assay-details: Partition equilibrium in reactor pressurized with CO2, in presence and absence of alkalinity (NaHCO3, Na2CO3), back titration
condition-description: 25° C. and 1.0 MPa CO2, no alkalinity
observed-property: Migration (% mol)
The response must be a number in % mol with no trailing unit.

1. CCCCC(=O)O [Pentanoic Acid, pentanoic acid] = 100

Quote Migration reported for O=C(O)c1ccccc1 [Benzoic Acid, benzoic acid] please.
64.4

====

assay-details: Partition equilibrium in the presence of surfactants (TBA, CTA, TMA)
Format: physicochemical
condition-description: Absence of surfactant; salinity 3.5%
observed-property: Migration

Some solved cases for reference:
1) O=C(O)CCCCC1CCCCC1 = 4.9 %, mol
2) CCCCC(=O)O = 77.0 %, mol
3) O=C(O)c1ccccc1 = 82.0 %, mol

Shifting focus to the molecule that follows.
Quote Migration reported for O=C(O)CCCCc1ccccc1 please.
10.4 %, mol

====

assay-details: Partition equilibrium in the presence of demulsifiers (Dissolvan 961, Dissolvan 974)
condition-description: D961 1000 mg · L^−1
observed-property: Migration

1. O=C(O)c1ccccc1 = 68.4 %, mol
2. O=C(O)CCCCC1CCCCC1 = 10.2 %, mol
3. CCCCC(=O)O = 75.7 %, mol

Quote Migration reported for O=C(O)CCCCc1ccccc1 please.
23.0 %, mol

====

assay-details: Partition equilibrium in the presence of surfactants (TBA, CTA, TMA)
Assay type: physicochemical
condition-description: TBA100 (tetrabutylammonium chloride 100 mg · L^−1)
Overview of reported Migration across a group of compounds:

Some solved cases for reference:
1) O=C(O)c1ccccc1 = 55.5 %, mol
2) O=C(O)CCCCc1ccccc1 = 22.0 %, mol
3) CCCCC(=O)O = 76.2 %, mol

Shifting focus to the compound that follows.
Quote Migration reported for O=C(O)CCCCC1CCCCC1 please.
18.5 %, mol

====

Overview of reported Migration across a group of molecules:
assay-details: Partition equilibrium in the presence of demulsifiers (Dissolvan 961, Dissolvan 974)
condition-description: D974 100 mg · L^−1

Some solved cases for reference:
1. O=C(O)CCCCc1ccccc1 [5-Phenylpentanoic Acid, 5-phenylpentanoic acid] = 16.0 %, mol
2. O=C(O)CCCCC1CCCCC1 [Cyclohexanepentanoic Acid, cyclohexanepentanoic acid] = 5.26 %, mol
3. O=C(O)c1ccccc1 [Benzoic Acid, benzoic acid] = 57.3 %, mol

Shifting focus to the molecule that follows.
Quote Migration reported for CCCCC(=O)O [Pentanoic Acid, pentanoic acid] please.
74.3 %, mol

====

assay-details: Partition equilibrium with addition of calcium and strontium salts to the aqueous phase
Assay type: physicochemical
condition-description: Strontium 2600 mg · L^−1; salinity 3.5%
Overview of reported Migration across a group of compounds:

Some solved cases for reference:
1) O=C(O)CCCCC1CCCCC1 = 4.8 %, mol
2) O=C(O)C(C1CCCCC1)C1CCCCC1 = 21.5 %, mol
3) O=C(O)c1ccccc1 = 83.0 %, mol

Quote Migration reported for CCCCC(=O)O please.
100.0 %, mol

Quote Migration reported for O=C(O)CCCCc1ccccc1 please.
4.8 %, mol

====

Overview of reported Migration across a group of molecules:
assay-details: Partition equilibrium with addition of calcium and strontium salts to the aqueous phase
Type: physicochemical
condition-description: Calcium 1200 mg · L^−1; salinity 3.5%

Some solved cases for reference:
1) O=C(O)C(C1CCCCC1)C1CCCCC1 [Dicyclohexylacetic Acid, dicyclohexylacetic acid] = 19.6 %, mol
2) O=C(O)CCCCc1ccccc1 [5-Phenylpentanoic Acid, 5-phenylpentanoic acid] = 4.7 %, mol
3) O=C(O)c1ccccc1 [Benzoic Acid, benzoic acid] = 56.7 %, mol
4) CCCCC(=O)O [Pentanoic Acid, pentanoic acid] = 98.7 %, mol

Quote Migration reported for O=C(O)CCCCC1CCCCC1 [Cyclohexanepentanoic Acid, cyclohexanepentanoic acid] please.
4.7 %, mol

====

Overview of reported Migration across a group of compounds:
assay-details: Partition equilibrium in the presence of demulsifiers (Dissolvan 961, Dissolvan 974)
condition-description: D974 50 mg · L^−1

1) CCCCC(=O)O = 66.9 %, mol
2) O=C(O)c1ccccc1 = 63.1 %, mol
3) O=C(O)CCCCc1ccccc1 = 18.0 %, mol

Shifting focus to the compound that follows.
Quote Migration reported for O=C(O)CCCCC1CCCCC1 please.
4.78 %, mol

====

Overview of reported Migration across a group of compounds:
assay-details: Partition equilibrium in the presence of demulsifiers (Dissolvan 961, Dissolvan 974)
condition-description: D961 50 mg · L^−1

1. CCCCC(=O)O = 67.0 %, mol
2. O=C(O)CCCCc1ccccc1 = 21.0 %, mol
3. O=C(O)c1ccccc1 = 62.3 %, mol

Quote Migration reported for O=C(O)CCCCC1CCCCC1 please.
5.42 %, mol

====

assay-details: Control experiments: availability of the species in alkaline aqueous medium without using the reactor
Type: physicochemical
condition-description: Na2CO3 + NaHCO3 (3.48×10^−5 mol); acid solubilized directly in aqueous phase, no reactor
observed-property: Availability (reference value) (% mol)

a. O=C(O)CCCCC1CCCCC1 [Cyclohexanepentanoic Acid, cyclohexanepentanoic acid]
b. CCCCC(=O)O [Pentanoic Acid, pentanoic acid]
I need your help: which of the pair a , b has higher Availability (reference value)? Label of pick, please.
a
(a: 100 % mol, b: 66.0 % mol)

====

assay-details: Partition equilibrium under the influence of salinity (NaCl), glass reactor, neutralization titration
Type: physicochemical
condition-description: Salinity 3.5 (%, m · m^−1) NaCl
observed-property: Migration

Some solved cases for reference:
1. O=C(O)CCCCC1CCCCC1 = 5.5 %, mol
2. O=C(O)c1ccccc1 = 83.0 %, mol
3. CCCCC(=O)O = 73.3 %, mol

Quote Migration reported for O=C(O)C(C1CCCCC1)C1CCCCC1 please.
18.1 %, mol

Quote Migration reported for O=C(O)CCCCc1ccccc1 please.
13.2 %, mol

====

assay-details: Partition equilibrium with addition of calcium and strontium salts to the aqueous phase
Format: physicochemical
condition-description: strontium 400-2600 mg·L^−1
observed-property: Effect of strontium ions on migration to the aqueous phase

1) O=C(O)C(C1CCCCC1)C1CCCCC1 = no effect
2) O=C(O)CCCCC1CCCCC1 = no effect

====

assay-details: Partition equilibrium in reactor pressurized with CO2, in presence and absence of alkalinity (NaHCO3, Na2CO3), back titration
condition-description: Na2CO3 + NaHCO3; 80° C. and 1.0 MPa CO2
observed-property: Migration (% mol)

1) CCCCC(=O)O = 79.9
2) O=C(O)CCCCC1CCCCC1 = 100.0
3) O=C(O)c1ccccc1 = 88.3
4) O=C(O)CCCCc1ccccc1 = 100.0

====

Overview of reported Migration across a group of compounds:
assay-details: Partition equilibrium in the presence of surfactants (TBA, CTA, TMA)
Format: physicochemical
condition-description: CTA100 (cetyltrimethylammonium chloride 100 mg · L^−1)

Some solved cases for reference:
1. O=C(O)c1ccccc1 = 57.1 %, mol
2. CCCCC(=O)O = 76.0 %, mol
3. O=C(O)CCCCc1ccccc1 = 11.5 %, mol

Quote Migration reported for O=C(O)CCCCC1CCCCC1 please.
2.1 %, mol

====

assay-details: Partition equilibrium in the presence of demulsifiers (Dissolvan 961, Dissolvan 974)
condition-description: D974 1000 mg · L^−1
Overview of reported Migration across a group of compounds:

Some solved cases for reference:
1) CCCCC(=O)O = 74.8 %, mol
2) O=C(O)c1ccccc1 = 59.7 %, mol
3) O=C(O)CCCCc1ccccc1 = 14.6 %, mol

Shifting focus to the compound that follows.
Quote Migration reported for O=C(O)CCCCC1CCCCC1 please.
12.80 %, mol

====

assay-details: Partition equilibrium in the presence of surfactants (TBA, CTA, TMA)
Assay type: physicochemical
condition-description: TMA1000 (1000 mg · L^−1)
observed-property: Migration

Quote Migration reported for O=C(O)CCCCC1CCCCC1 [Cyclohexanepentanoic Acid, cyclohexanepentanoic acid] please.
0.0 %, mol

Quote Migration reported for O=C(O)CCCCc1ccccc1 [5-Phenylpentanoic Acid, 5-phenylpentanoic acid] please.
9.1 %, mol

Quote Migration reported for O=C(O)c1ccccc1 [Benzoic Acid, benzoic acid] please.
63.7 %, mol

Quote Migration reported for CCCCC(=O)O [Pentanoic Acid, pentanoic acid] please.
83.5 %, mol

====

assay-details: Control experiments: availability of the species in alkaline aqueous medium without using the reactor
Format: physicochemical
condition-description: NaHCO3 (3.45×10^−5 mol); acid solubilized directly in aqueous phase, no reactor
observed-property: Availability (reference value) (% mol)

1. CCCCC(=O)O = 90.7
2. O=C(O)CCCCC1CCCCC1 = 100
3. O=C(O)c1ccccc1 = 83.1
4. O=C(O)CCCCc1ccccc1 = 100.0

====

Overview of reported Migration across a group of compounds:
assay-details: Partition equilibrium under the influence of salinity (NaCl), glass reactor, neutralization titration
Type: physicochemical
condition-description: Salinity 30.0 (%, m · m^−1) NaCl

Some solved cases for reference:
1) O=C(O)CCCCc1ccccc1 = 15.4 %, mol
2) O=C(O)c1ccccc1 = 22.5 %, mol
3) O=C(O)CCCCC1CCCCC1 = 4.8 %, mol
4) CCCCC(=O)O = 23.3 %, mol

Shifting focus to the compound that follows.
Quote Migration reported for O=C(O)C(C1CCCCC1)C1CCCCC1 please.
21.5 %, mol
